FYI, the data here is from patent US20060078880.

System: C7.GAT C7 finger-3 helix RSDERKR replaced by TSGNLVR (SEQ 51) (synthetic)
Assay: EMSA
Conditions: [none]; gel mobility shift; exact target oligo not stated
measureName: pKd
Friendly reminder that pKd comes from taking -log10 of the concentration in mol/L.

[in] State the recorded pKd for this entry: GATTGGGCG (double strand) [C7.GAT target, finger-2 subsite TGG]
[out] 6.40
